# assay system: T1, Recombinant human EGFR-Fc (aa 1-645 of the extracellular domain of human EGFR fused to human Fc) (human, UniProt P00533 25-645)
# T1 construct: range 1-645; bought from R&D Systems; also called EGFR645-Fc; EGFR-Fc (HER-1); not shown: human Fc
# procedure text: SPR Biacore
endpoint: pKd
As a rule, pKd stands for the negative log10 of the concentration, concentration in M.

INPUT: Identify measured pKd corresponding to I1-GSGCGS8-E5 pegylated (designed binder, PEG on the Cys of the GSGCGS8 linker, alternative clone of I1-GS10-E5 pegylated; tail of first monomer EIEK (D to E); also called I1-GSGCGS8-E5(3)) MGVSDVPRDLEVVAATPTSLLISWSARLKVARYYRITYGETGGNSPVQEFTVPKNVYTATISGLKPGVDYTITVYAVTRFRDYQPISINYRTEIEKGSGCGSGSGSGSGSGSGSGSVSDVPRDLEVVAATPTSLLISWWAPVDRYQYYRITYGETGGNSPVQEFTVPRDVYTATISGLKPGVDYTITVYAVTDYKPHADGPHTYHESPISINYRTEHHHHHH
OUTPUT: 8.40

INPUT: State its pKd: I1-GS10-E5(S62C) pegylated (designed binder, PEG on Cys at position 62 of E5 (position of SEQ ID NO: 1), also called I1-GS10-E5(S62C)(6)) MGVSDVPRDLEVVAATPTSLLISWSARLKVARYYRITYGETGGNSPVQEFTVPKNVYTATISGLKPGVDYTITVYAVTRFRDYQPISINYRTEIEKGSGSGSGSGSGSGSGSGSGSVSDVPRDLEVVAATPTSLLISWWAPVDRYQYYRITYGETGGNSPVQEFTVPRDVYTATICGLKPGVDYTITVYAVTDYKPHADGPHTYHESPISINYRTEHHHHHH
OUTPUT: 8.77

Numbers sourced from patent US20180037631A1.
